Each recorded value in this set is attributed to PubChem BioAssay AID651658.

- TESTED_SYSTEM: Fibroblast growth factor 22 (Homo sapiens)
- TEST_DESCRIPTION: binders of human FGF22 protein, primary screen, FGF22 synaptogenesis inhibitor project, biophysical, thermal shift, single point (AID 651658)
- MEASUREMENT_PARAMETERS: recombinant FGF22 thermal shift, SYPRO orange fluorescence; at 9.99 µM; stronger effect = higher value; percent of sucrose octasulfate shift, DMSO zero
Among all 340,000 compounds or so, about 5,100 (1.5%) were called active. What follows is part of a selection rich in actives, with near analogues and random picks from the rest.
REPORTED_PROPERTY: activity (Tm shift, normalised) (%)
Answer with a number only, understood to be in %.

Q: // activity (Tm shift, normalised) lookup, key: `C[C@H](NC(=O)C[C@H]1CC[C@H]2[C@@H](COC[C@H](O)CN2C(=O)Nc2cccc(Cl)c2)O1)c1ccccc1`
A: 0.797

* * *

- TESTED_SYSTEM: Fibroblast growth factor 22 (Homo sapiens)
- TEST_DESCRIPTION: binders of human FGF22 protein, primary screen, FGF22 synaptogenesis inhibitor project, biophysical, thermal shift, single point (AID 651658)
- MEASUREMENT_PARAMETERS: recombinant FGF22 thermal shift, SYPRO orange fluorescence; at 9.99 µM; percent of sucrose octasulfate shift, DMSO zero
Among all 340,000 compounds or so, about 5,100 (1.5%) were called active.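 Rule for the calls: active = mean Tm shift, scaled 0 neutral to 100 positive control, at about 1.3% or above, every replicate too (limit read from the data); inconclusive = no clear call, values can overlap the other calls; inactive = the rest.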 Shown is part of a subset that was picked to be rich in actives.
Field 'call' accepts Yes = active, No = inactive

- COc1cccc(NC(=O)C[C@@H]2CC[C@H]3[C@@H](COc4ccc(NC(=O)C5CCOCC5)cc4C(=O)N3C)O2)c1: No

Q: Tell me the assay call for `COc1ccc(NC(=O)Nc2ccc3c(c2)[C@@H]2C[C@@H](CC(=O)NCc4ccncc4)O[C@@H](CO)[C@@H]2O3)cc1` please.
A: No

Q: Answer briefly: the call reported for `O=C(Nc1ccccc1F)N[C@H]1C=C[C@H](CC(=O)N2CCCCC2)O[C@H]1CO` in this assay.
A: No

Q: Outcome logged for Cc1cc(C)cc(OCC(=O)NC(C)c2ccccc2)c1 (centres undefined) in this assay:
A: No

Q: For Cc1ccc(OCC(=O)NC(C)c2ccccc2)c([N+](=O)[O-])n1 (centres undefined) , which call appears in the assay record?
A: Yes

Q: Test call for this compound, please: `COc1ccccc1CNC(=O)COc1ccc(C)nc1[N+](=O)[O-]`
A: No

* * *

- TESTED_SYSTEM: Fibroblast growth factor 22 (Homo sapiens)
- TEST_DESCRIPTION: binders of human FGF22 protein, primary screen, FGF22 synaptogenesis inhibitor project, biophysical, thermal shift, single point (AID 651658)
- MEASUREMENT_PARAMETERS: recombinant FGF22 thermal shift, SYPRO orange fluorescence; at 9.99 µM; stronger effect = higher value; percent of sucrose octasulfate shift, DMSO zero
About 5,100 (1.5%) of roughly 340,000 compounds were called active. This excerpt belongs to a sample that is enriched for actives.
REPORTED_PROPERTY: activity (Tm shift, normalised) (%)
Field format: number, assumed %, no unit text.

Solved entries (count: 8):
- C[C@@H]1CN([C@H](C)CO)C(=O)c2cc(NC(=O)Cn3cnnn3)ccc2O[C@@H]1CN(C)C(=O)Nc1ccc2c(c1)OCO2: 0.191
- CCC(C)N(C(=O)CSc1nnnn1-c1ccccc1OC)C1CCS(=O)(=O)C1 (centres undefined): -0.269
- O=C(CSc1ccccc1)Nc1ccc(C(=O)Nc2cccc(O)c2)cc1: 42.3
- C/C=C/c1ccc2c(c1)O[C@H](CN(C)C(=O)Cc1ccccn1)[C@H](C)CN([C@H](C)CO)S2(=O)=O: -0.272
- CCC(C)N(C(=O)COC(=O)c1nc(Cl)ccc1Cl)C1CCS(=O)(=O)C1 (centres undefined): 0.546
- C[C@@H]1CN([C@H](C)CO)C(=O)c2cc(NS(=O)(=O)c3cn(C)cn3)ccc2O[C@@H](C)CCCCO[C@@H]1CN(C)C(=O)CCC(F)(F)F: -0.484
- Cc1cc(Cl)ccc1OCCCC(=O)Nc1cccc(-n2cnnn2)c1: 0.032
- CCC(C)N(C(=O)COC(=O)C1C(C(=O)OC)=C(C)NC(C)=C1C(=O)OC)C1CCS(=O)(=O)C1 (centres undefined): 43.2

Consider now this further molecule.
Q: Find the recorded activity (Tm shift, normalised) belonging to `O=C1C=C(c2ccccc2)CCC1` and report it.
A: 43.9

* * *

- TESTED_SYSTEM: Fibroblast growth factor 22 (Homo sapiens)
- TEST_DESCRIPTION: binders of human FGF22 protein, primary screen, FGF22 synaptogenesis inhibitor project, biophysical, thermal shift, single point (AID 651658)
- MEASUREMENT_PARAMETERS: recombinant FGF22 thermal shift, SYPRO orange fluorescence; at 9.99 µM; stronger effect = higher value; percent of sucrose octasulfate shift, DMSO zero
Out of some 340,000 compounds screened, about 5,100 (1.5%) were called active. Only a selection was taken, and actives are over-represented in it overall.
REPORTED_PROPERTY: activity (Tm shift, normalised) (%)
Numbers only; they are read as %.

Here's what some known entries look like.
• O=C(CN1CCCCCC1)Nc1ccc(Br)cc1[N+](=O)[O-] = -0.021
• COc1cc(Cl)c(C)cc1NC(=O)CN1CCCCCC1 = -0.091
• CCCC1(C(=O)OC)NC(c2ccco2)C2C(=O)N(C)C(=O)C21 (centres undefined) = 43.8

Q: Quick check: activity (Tm shift, normalised) of `CC[C@@]1(C(=O)OC)N[C@H](CN(C)C(C)=O)[C@@H]2C(=O)N(C)C(=O)[C@@H]21` ?
A: 43.4

Q: // query activity (Tm shift, normalised) value for entry `COC(=O)[C@]1(C)N[C@H](CN(C)C(=O)c2ccc(C(C)(C)C)cc2)[C@@H]2C(=O)N(C)C(=O)[C@@H]21`
A: 0.232

Q: I would be grateful if you could share the reported activity (Tm shift, normalised) for `CN1C(=O)c2cc(NC(=O)c3cnccn3)ccc2OC[C@H]2O[C@@H](CC(=O)NCC3CCCCC3)CC[C@@H]21` .
A: -0.186

Q: Recorded activity (Tm shift, normalised) for `CCN(C[C@H]1N[C@@](CC)(C(=O)OC)[C@H]2C(=O)N(C)C(=O)[C@@H]12)C(=O)Nc1ccc(F)cc1` , please?
A: -0.067

Q: # activity (Tm shift, normalised) lookup, item `COc1cc([N+](=O)[O-])ccc1NC(=O)CN1CCCC1`
A: 1.49

Q: Field request: activity (Tm shift, normalised) | item: `CCCN(C)C[C@@H]1OCCCC[C@@H](C)Oc2ccc(NS(=O)(=O)c3c(C)noc3C)cc2C(=O)N([C@H](C)CO)C[C@@H]1C`
A: -0.518

* * *

- TESTED_SYSTEM: Fibroblast growth factor 22 (Homo sapiens)
- TEST_DESCRIPTION: binders of human FGF22 protein, primary screen, FGF22 synaptogenesis inhibitor project, biophysical, thermal shift, single point (AID 651658)
- MEASUREMENT_PARAMETERS: recombinant FGF22 thermal shift, SYPRO orange fluorescence; at 9.99 µM; percent of sucrose octasulfate shift, DMSO zero
The campaign covered roughly 340,000 compounds. About 5,100 (1.5%) were called active.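 Rule for the calls: active = mean Tm shift, scaled 0 neutral to 100 positive control, at about 1.3% or above, every replicate too (limit read from the data); inconclusive = no clear call, values can overlap the other calls; inactive = the rest.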 For the sample, actives were picked, then their nearest neighbours and some compounds at random.
Could you please pick one outcome from this set? active, inactive

Known results for compounds:
- COc1ccc2c3c(n(C)c2c1)[C@H](CO)N(Cc1ccccc1)CC31CN(C(=O)c2ccccc2F)C1: inactive
- O=C(c1cccnc1)N1CC(=O)N2[C@H](C1)[C@H](c1ccc(-c3ccccc3F)cc1)[C@@H]2CO: inactive
- O=C(c1cccnc1)N1C[C@H]2[C@@H](c3ccccc31)[C@@H](CO)N2C(=O)Nc1ccccc1F: inactive
- COc1cc(C(=O)N2CCN(C/C=C/c3ccccc3)CC2)cc(OC)c1C: inactive
- CCS(=O)(=O)N1Cc2cc(C(=O)N(C)C)nc(-c3cccc(-c4ccc(C#N)cc4)c3)c2[C@H]1CCO: inactive

Q: Outcome? `Cc1ccc(NC(=O)CC(=O)Nc2ccc(C)cc2)cc1`
A: active

Q: I'd appreciate the recorded outcome for `CCCC(=O)Nc1ccc2c(c1)OC[C@H](C)N(Cc1ccc(F)cc1)C[C@H](C)[C@H](OC)CN(C)C2=O` from this test.
A: inactive

Q: Hey, what did the test say about `O=C(C[C@@H]1CC[C@@H]2[C@H](COC[C@H](O)CN2S(=O)(=O)c2ccccc2F)O1)NCc1ccccc1F` ?
A: inactive

Q: Dear all, I need the recorded test outcome for `Brc1cc(/C=N/n2cnnc2)oc1Br` , thank you.
A: inactive

Q: What did this assay record as the result for `O=C(Cn1c(N2CCN(C/C=C/c3ccccc3)CC2)nc2ccccc21)c1ccccc1` ?
A: active

Q: Short answer needed: outcome of this test for `O=C(Nc1ccccc1F)N1[C@H](CO)[C@H]2c3ccccc3NC[C@H]21` ?
A: active

Q: Per the assay record, what outcome was assigned to `Clc1cc(-c2ccc(/C=N/n3cnnc3)o2)ccc1Br` ?
A: active

Q: What is the recorded call for this compound in the test? `Cc1ccc(NC(=O)c2cccnc2C(=O)Nc2ccc(C)cc2)cc1`
A: inactive

Q: Look up the recorded call for `Cc1ccc(NC(=O)Cn2c(C)csc2=O)cc1` in this test.
A: inactive

Q: Lab log entry: `C/C=C/c1cnc2c(c1)C(=O)N([C@@H](C)CO)C[C@@H](C)[C@@H](CN(C)S(=O)(=O)c1ccccc1F)O2` — outcome as called in the assay?
A: inactive

Q: State the result this test recorded for `COCC(=O)N1CC(=O)N2[C@H](CO)[C@@H](c3ccc(-c4ccccc4F)cc3)[C@H]2C1` .
A: inactive

Q: Recorded test outcome, item `O=C(c1ccccc1F)N1CC(=O)N2[C@H](C1)[C@H](c1ccc(-c3ccc(F)cc3)cc1)[C@@H]2CO`
A: active

Q: Hi team, can someone confirm the assay call for `O=C(C[C@H]1C[C@@H]2c3cc(NC(=O)C4CCC4)ccc3O[C@@H]2[C@H](CO)O1)NCCN1CCCCC1` ?
A: inactive

Q: Please share the test call associated with `CCCN1[C@@H]2c3ccc(C4=CCCC4)c(=O)n3C[C@@H]2[C@@H](CO)[C@@H]1C(=O)NCc1ccccn1` .
A: inactive
